inhibition listing for selected molecules.
Assay: growth inhibition of CRL1545 osteosarcoma cells, cell-based, cisplatin and BGB IC20 combos (AID 1671464);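 also: cells exposed to compound for 96 hours before readout; 0% = vehicle DMSO and 100% = high DMSO killing control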
Settings: measured here: with BGB IC20 combination, at 0.5 µM, stronger effect = higher value
# output: bare number, implied unit %

| MOLECULE | inhibition / % |
| --- | --- |
| C[C@@H](CN1CC(=O)NC(=O)C1)N1CC(=O)NC(=O)C1 | -33.6 |

The molecule COC1C(OC(N)=O)C(O)C(Oc2ccc3c(O)c(NC(=O)c4ccc(O)c(CC=C(C)C)c4)c(=O)oc3c2C)OC1(C)C (centres undefined) showed inhibition equal to -36.9

For CCOC(=O)Nc1ccc(NCc2ccc(F)cc2)nc1N the molecule record lists inhibition as -17.8

The reported value for N=C(N=C(N)N)N1CCOCC1 in terms of inhibition is -18.7

Source listed as PubChem BioAssay.
